Tested on: SR leukemia
method description: NCI-60 one-dose screen, 48 h
recorded conditions: 10 µM unless noted
About 83,000 compounds went through this panel and 20% of them were active in at least one assay; those are over-represented in the sample as a whole. Activity calls are given as the source filed them. How the source made its calls: active means growth percent below 10; inactive means the rest.
// allowed return values: true (1) for active, false (0) for inactive

Study these solved cases before continuing.
CCCSc1nc(Nc2ccc(S(N)(=O)=O)cc2)c(C#N)c(-c2ccc(Cl)cc2)n1 = false (0)
S=C(Nc1ccc(OCc2nc3ccccc3[nH]2)cc1)NC1CCCCC1 = false (0)
CCOC(=O)C1=C(N)N(c2ccccc2)C2=C(C(=O)CC(C)(C)C2)C1c1cccc(Cl)c1Cl (configuration not stated) = false (0)

Outcome logged for C=C1CCC2C3(C)COC(c4cccc(F)c4)OC3CCC2(C)C1C/C=C1/C(=O)OCC1O (configuration not stated) in this assay:
true (1)

Outcome logged for "CN(C)CCn1c2ccccc2c2nc3cc4ccccc4cc3nc21" in this assay:
true (1)

Outcome logged for "CC(C)c1sc(NC(=O)c2cc(NC(=O)c3cc(NC(=O)c4nccn4C)cn3C)cn2C)nc1C(=O)NCCCN(C)C" in this assay:
false (0)

Outcome logged for "CCN(CC)CCOc1ccc(Nc2ncc3cc(-c4ccc(O)c(C#N)c4)c(=O)n(C)c3n2)cc1" in this assay:
true (1)

Outcome logged for "Nc1nnc(-c2c[nH]c3ncc(Br)cc23)c(-c2c[nH]c3ccc(F)cc23)n1" in this assay:
false (0)

Outcome logged for C=C1CCC2C3(C)COC(c4ccccc4F)OC3CCC2(C)C1CC(O)C1=CCOC1=O (configuration not stated) in this assay:
false (0)

Outcome logged for "CC(=O)Nc1ccc(C(=O)NC(=S)Nc2ccc(S(N)(=O)=O)cc2)cc1" in this assay:
false (0)

* * *

System: 786-0 renal
method description: NCI-60 one-dose screen, 48 h (100 = growth as untreated, 0 = no growth, -100 = all killed)
recorded conditions: 10 µM unless noted
About 83,000 compounds went through this panel and 20% of them were active in at least one assay; those are over-represented in the sample as a whole.
quantity measured: growth (%)
One number for each entry, in %.

Below are worked cases with known answers.
COc1ccc(NC(=O)Cn2c3c(sc2=O)[C@H]2[C@@H](O)[C@@H](O)[C@H](O)[C@@H]2CS3)cc1 = 104
O=C(N/N=C/c1ccc(-c2ccc(O)cc2)s1)c1[nH]c2ccc(Br)cc2c1-c1ccccc1 = -28
O=C(c1ccc(OCCN2CCOCC2)cc1)C1[C@H](c2ccc(Cl)cc2)[C@@H](c2ccccc2)NC12C(=O)Nc1ccc(Br)cc12 (stereo partly specified) = -4.29
CC1=C(C(=O)OC(C)C)C(c2cccc(O)c2)NC(=S)N1 (stereo unspecified) = 106
CC(=O)Oc1ccccc1C(=O)[Se]CC(=O)Nc1cccc(C(F)(F)F)c1 = -14.7

For the 3 molecules below, give their growth values.
1. NS(=O)(=O)c1ccc(CCNC(=O)CSc2ccc(-c3ccc(Br)cc3)nn2)cc1
2. COc1ccc(-c2ccc(SCC(=O)Nc3ccc(S(N)(=O)=O)cc3Br)nn2)cc1
3. O=C(c1ccc(Cl)cc1)c1ccc(OCCCN2CCN(c3ccncc3)CC2)cc1

1: 75.3; 2: 33.8; 3: 33.5

For the 4 molecules below, give their growth values.
1. N#Cc1c(-c2ccc(Br)cc2)nc2n[nH]c(-c3ccc(Br)cc3)c2c1-c1ccc(C(F)(F)F)cc1
2. CCCSc1nc(Nc2ccc(S(N)(=O)=O)cc2)c(C#N)c(-c2cc(OC)c(OC)c(OC)c2)n1
3. C=C1CCC2C3(C)COC(c4ccco4)OC3CCC2(C)C1CC(Sc1ccccc1)C1=CCOC1=O (stereo unspecified)
4. Cc1cnc(C(=O)NNc2nc3cc(F)ccc3n3c(C(=O)N4CC5CC(C4)N5)ccc23)cn1

27.6
41.5
62.7
-2.57

For the 7 molecules below, give their growth values.
1. O=c1[nH]n(C(=S)N/N=C/c2ccccc2Cl)c(=O)c2ccccc12
2. COc1ccc(C2=NN(c3ccccc3)C(c3ccc(OCc4ccccc4)c(OC)c3)C2)cc1OC (stereo unspecified)
3. CCCCCCn1c(O)c(N=Nc2nc(-c3cc4ccccc4oc3=O)cs2)c2ccccc21
4. COc1cc(C2CC(c3cc(OC)c(OC)c(OC)c3)=NN2c2ccccc2)ccc1OCc1ccc(C)cc1 (stereo unspecified)
5. COc1ccc(C(=O)/C=C/c2ccc(OCc3ccc(F)cc3)c(OC)c2)cc1OC
6. O=c1[nH]c2ccccc2cc1CSc1cccc(Nc2nccc(-c3ccc4ccccc4c3)n2)c1
7. O=C(/C=C/c1ccc(O)c(O)c1)NC1CCOC1O (stereo unspecified)

12.9
97.1
-64.8
102
37.4
75.2
97.2

For the 2 molecules below, give their growth values.
1. NS(=O)(=O)c1ccc(-n2cc(-c3cccc(NC(=O)c4cc(C(F)(F)F)cc(C(F)(F)F)c4)c3)nn2)cc1
2. CC12CC[C@@H]3[C@]4(C)COC(c5c(F)cccc5F)O[C@@H]4CC[C@@]3(C)[C@@H]1CC(C1=CCOC1=O)O2 (stereo partly specified)

1: 44.2; 2: 46.8
